# test.target: cloned human μ receptors (Homo sapiens, UniProt P35372)
# Construct: expressed in transfected cells; host or cells: human HEK-293S cells, grown in suspension under geneticin selection
# Sequence (P35372 whole entry): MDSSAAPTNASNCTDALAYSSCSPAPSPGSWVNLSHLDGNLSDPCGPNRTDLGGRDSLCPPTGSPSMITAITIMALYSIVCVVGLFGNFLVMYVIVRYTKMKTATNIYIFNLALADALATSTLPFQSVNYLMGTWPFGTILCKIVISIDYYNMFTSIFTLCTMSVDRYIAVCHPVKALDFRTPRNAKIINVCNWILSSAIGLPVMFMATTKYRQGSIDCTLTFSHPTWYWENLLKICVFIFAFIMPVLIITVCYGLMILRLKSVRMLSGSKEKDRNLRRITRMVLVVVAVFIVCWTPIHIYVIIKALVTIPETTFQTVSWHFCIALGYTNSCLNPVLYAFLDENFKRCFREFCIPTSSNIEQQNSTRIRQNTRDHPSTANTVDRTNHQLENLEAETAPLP
# experiment.description: Human μ receptor radioligand binding assay
# recorded.conditions: Human μ IC50, Table 2; range over the listed compounds
pIC50: −log10 of the molar value.
quantity.kind: pIC50

What value of pIC50 has been recorded for this entry: CCN(CC)C(=O)c1ccc(C(c2cccc(C(N)=O)c2)N2CCN(Cc3ccccc3)CC2)cc1 (single isomer, unassigned) [Compound 1b] 5.76 to 7.35

What value of pIC50 has been recorded for this entry: CCN(CC)C(=O)c1ccc(C(c2cccc(C(N)=O)c2)N2CCN(Cc3ccco3)CC2)cc1 (single isomer, unassigned) [Compound 2a] 5.76 to 7.35

What value of pIC50 has been recorded for this entry: CCN(CC)C(=O)c1ccc(C(c2cccc(C(=O)NC)c2)N2CCN(Cc3ccccc3)CC2)cc1 (single isomer, unassigned) [Compound 3a] 5.76 to 7.35

###

# test.target: δ receptors in rat brain membranes (Rattus norvegicus, UniProt P33533)
# Construct: membranes from HEK-293S cells expressing the cloned human opioid receptors or from homogenised rat and mouse brain
# Sequence (P33533 whole entry): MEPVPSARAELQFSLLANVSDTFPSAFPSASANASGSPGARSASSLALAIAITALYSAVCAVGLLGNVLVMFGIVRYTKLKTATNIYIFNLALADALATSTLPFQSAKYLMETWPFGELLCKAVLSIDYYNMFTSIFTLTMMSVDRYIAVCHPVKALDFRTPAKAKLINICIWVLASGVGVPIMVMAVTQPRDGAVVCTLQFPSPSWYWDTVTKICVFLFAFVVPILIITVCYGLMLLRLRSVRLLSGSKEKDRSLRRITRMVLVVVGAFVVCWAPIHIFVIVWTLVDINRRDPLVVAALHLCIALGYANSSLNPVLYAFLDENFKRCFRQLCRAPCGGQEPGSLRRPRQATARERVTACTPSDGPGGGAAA
# experiment.description: Rat brain GTPγ35S functional assay
quantity.kind: EC50 (pM)
# unit: pM | format: bare number

What value of EC50 has been recorded for this entry: CCN(CC)C(=O)c1ccc(C(c2cccc(C(N)=O)c2)N2CCN(Cc3ccccc3)CC2)cc1 (single isomer, unassigned) 200
